# target.entity: Adenosine receptor A3 (Rattus norvegicus, UniProt P28647)
# Sequence (P28647 whole entry): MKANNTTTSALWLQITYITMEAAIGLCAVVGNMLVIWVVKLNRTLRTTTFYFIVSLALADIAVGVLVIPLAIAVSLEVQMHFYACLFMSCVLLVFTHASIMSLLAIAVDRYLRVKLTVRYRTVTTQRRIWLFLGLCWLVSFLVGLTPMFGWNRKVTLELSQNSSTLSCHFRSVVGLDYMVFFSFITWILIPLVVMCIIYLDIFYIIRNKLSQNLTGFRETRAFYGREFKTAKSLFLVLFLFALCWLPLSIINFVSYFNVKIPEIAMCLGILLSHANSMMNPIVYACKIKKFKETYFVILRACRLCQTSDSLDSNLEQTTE
# assay.remarks: Displacement of [3H]NECA from recombinant rat adenosine A3 receptor expressed in CHO cell membranes after 3 hrs by microbeta scintillation counting
property.label: Ki (nM)
Give bare numbers, in nM.

Use the examples below as a reference point.
{"columns": ["compound", "reported"],
 "data": [
  ["CCn1nnc([C@H]2O[C@@H](n3cnc4c(NCc5cccc(I)c5)nc(Cl)nc43)[C@H](O)[C@@H]2O)n1", 2.53],
  ["CCn1nnc([C@H]2O[C@@H](n3cnc4c(N)ncnc43)[C@H](O)[C@@H]2O)n1", 228],
  ["CCn1nnc([C@H]2O[C@@H](n3cnc4c(NCC5CC5)ncnc43)[C@H](O)[C@@H]2O)n1", 65.2],
  ["CCn1nnc([C@H]2O[C@@H](n3cnc4c(NC)nc(Cl)nc43)[C@H](O)[C@@H]2O)n1", 600],
  ["CCn1nnc([C@H]2O[C@@H](n3cnc4c(NCc5ccco5)ncnc43)C(O)C2O)n1 (single isomer, unassigned)", 33.1],
  ["CCn1nnc([C@H]2O[C@@H](n3cnc4c(NCc5cccc(F)c5)ncnc43)C(O)C2O)n1 (single isomer, unassigned)", 9.26]
]}

Below is a list of compounds. For each, state its recorded Ki.
1. CCn1nnc([C@H]2O[C@@H](n3cnc4c(N)nc(Cl)nc43)[C@H](O)[C@@H]2O)n1
2. CCn1nnc([C@H]2O[C@@H](n3cnc4c(NCc5cccc(Br)c5)ncnc43)C(O)C2O)n1 (single isomer, unassigned)
3. CCn1nnc([C@H]2O[C@@H](n3cnc4c(NCc5ccc(Cl)cc5F)ncnc43)C(O)C2O)n1 (single isomer, unassigned)

212
4.11
22.6

Below is a list of compounds. For each, state its recorded Ki.
1. CCn1nnc([C@H]2O[C@@H](n3cnc4c(NCc5cccc(I)c5)ncnc43)C(O)C2O)n1 (single isomer, unassigned)
2. CCn1nnc([C@H]2O[C@@H](n3cnc4c(NC)ncnc43)[C@H](O)[C@@H]2O)n1
3. CCn1nnc([C@H]2O[C@@H](n3cnc4c(NCc5cccs5)ncnc43)C(O)C2O)n1 (single isomer, unassigned)
4. CCn1nnc([C@H]2O[C@@H](n3cnc4c(Nc5ccc(Cl)cc5F)ncnc43)[C@H](O)[C@@H]2O)n1
5. CCn1nnc([C@H]2O[C@@H](n3cnc4c(NCc5cccc(Cl)c5)ncnc43)[C@H](O)[C@@H]2O)n1
6. CCn1nnc([C@H]2O[C@@H](n3cnc4c(NC5CC5)ncnc43)[C@H](O)[C@@H]2O)n1

1: 6.1; 2: 484; 3: 10.1; 4: 21.4; 5: 2.69; 6: 66
